Test system: 786-0 renal
TEST_PROTOCOL: NCI tumour cell line growth inhibition, 48 h
Where a SMILES comes first, the peptide text is derived from it.
ASSAY_ENDPOINT: TGI

COMPOUND | TGI
O=C1CC=C2C3CC4N(CCC45c4ccccc4N1C25)C/C3=C\CO (centres undefined) | > 100 µM
O=C(NC1CCCCC1)NC12CC3CC(CC(F)(C3)C1)C2 | > 100 µM
Cc1cc(-c2nc3ccc(F)cc3s2)ccc1NC(=O)C(N)CCCCN (centres undefined) | 8.76 µM
C1=C2C3=[N+](CCCC3)CC2Cc2sccc21 (centres undefined) | > 100 µM

What is its TGI for 786-0 renal? Entry: CCCCC1Nc2ccccc2-c2ccnc(Cl)c21 (centres undefined)
45.2 µM

Ok, now `Nc1nncc2n[nH]nc12`
> 100 µM

Then this compound: `O=C1NN(C(=O)c2ccccc2)C(c2ccc(Cl)c(Cl)c2)=C/C1=C\c1ccccc1[N+](=O)[O-]`
> 6.75 µM

CON1C(=O)C2(CCCCC2)C(=O)C12C=CC(C)CC2 (centres undefined) ?
> 100 µM

And the next one, `COc1cc(OCCCN2CCCC2)ccc1Nc1ncc(Cl)c(Nc2ccccc2P(C)(C)=O)n1` ?
11.6 µM

Also `FC(F)(F)c1cccc(Oc2ccc(Nc3ncnc4ccc(OCCCN5CCOCC5)cc34)cc2Cl)c1` ?
3.11 µM

Then `O=S(=O)(O)c1ccc(N=Nc2ccc(N=Nc3c(O)ccc4ccc(S(=O)(=O)O)cc34)cc2)cc1` ?
> 100 µM

Further, for C=CCN=C1NC(=O)C(CC(=O)Nc2cccc(Cl)c2)S1 (centres undefined) ?
> 100 µM

Query `OCC#Cc1ccccc1C#Cc1ccc(C#Cc2ccccc2C#CCO)cc1` next
82.6 µM

Also check CC12CP(=O)(O)CC1C2(Cl)Cl (centres undefined)
> 100 µM

Now give it for CC(=O)NC(CS)C(=O)NC(CO)C(=O)NC(CO)C(=O)NC(Cc1c[nH]c2ccccc12)C(=O)N1CCCC1C(=O)NC(CO)C(=O)NC(Cc1c[nH]c2ccccc12)C(=O)NC(Cc1c[nH]cn1)C(=O)NC(CO)C(=O)NC(Cc1c[nH]c2ccccc12)C(=O)NCC(=O)NCC(=O)NC(C)C(=O)NC(CCC(N)=O)C(=O)NC(CCCCN)C(=O)NC(C)C(=O)NC(CCCNC(=N)N)C(=O)NC(CCCCN)C(N)=O (centres undefined) (Ac-CSSWPSWHSWGGAQKARK-NH2; configuration not given here) too.
19.5 µM

Further, for `O=C(Nc1ccc(Cl)cc1)c1cc(NCc2cc(O)ccc2O)ccc1O` ?
19.6 µM

Item: `O=C1/C(=C/c2ccc([N+](=O)[O-])cc2)CCCc2ccccc21`
> 100 µM

Now consider COC1CC(O[C@H]2CC[C@@]3(C)C(=CCC4(O)C3CCC35C(=O)OC6(C)O[C@@]43CCC65)C2)OC(C)C1O (some centres undefined) and answer again.
> 100 µM

What do we get for `CCOC(=O)NC(=O)c1cn(C2CCCCC2)c(=O)n(C)c1=O` ?
> 100 µM

###

System: SF-295 CNS
TEST_PROTOCOL: NCI tumour cell line growth inhibition, 48 h
ASSAY_ENDPOINT: TGI

Would you please look over these solved cases?
COMPOUND | TGI
CC1(C)N=C(N)N=C(N)N1c1cccc(CCCCc2ccc(Cl)c(S(=O)(=O)F)c2)c1 | 13.4 µM
COc1ccc(C2=NN(C(C)=O)c3nc4ccccc4nc3O2)cc1 | > 100 µM
Cc1ccc(S(=O)(=O)NC(Cc2ccccc2)C(=O)CCl)cc1 (stereo not given) | 36.6 µM
CCCNC(=O)Cn1c2c(c3ccccc31)CCCC2 | > 100 µM
O=C([O-])c1ccccc1Nc1ccccc1C(=O)[O-].[OH3+].[Zn+2] | 32.2 µM

// TGI lookup, key: C/C=C(\C)C(=O)OC1C2C(C)=CC(=O)C(O)C2(C)C2C3(O)OCC24C1OC(=O)C(OC(C)=O)C4C(C)C3O (stereo not given)
0.0959 µM

Here is the next compound: Cc1cn(CCCCOC(=O)NC(CCCN=C(N)N)C(=O)O)c(=O)[nH]c1=O (stereo not given)
> 100 µM

Let us now turn to `CCCCCCCCCCNC(=S)OC`
> 100 µM

Same lookup for COc1cccc(C2SC(C)C(=O)N2NC(=O)C(O)c2ccccc2)c1 (stereo not given) , please.
> 100 µM

Please answer likewise for `CC(=O)N(N=O)c1ccc(N(N=O)C(C)=O)cc1`
> 100 µM

Next up: `COc1ccc(/C=C/c2cc(OC)c(OC)c(OC)c2)cc1OC`
> 100 µM

Do the same for CCCCSC1CCSc2c1ccc1ccccc21 (stereo not given) please
> 100 µM

Also, `O=C1NCN(c2ccccc2)C12CCN(CCCN1CCN(CCOC(c3ccccc3)c3ccccc3)CC1)CC2` please.
6.41 µM

Now try C=C1C2CC(OC(C)=O)C3(C)C(c4ccoc4)OC(=O)[C@@H](O)[C@]13OC1C[C@H](OC(C)=O)C(C)(C)[C@H](C(O)C(=O)OC)[C@]12C (stereo not given in full) .
> 100 µM

Try COC(=O)C(/C(=N/N)C(=O)Nc1cc(Cl)ccc1Cl)c1nc2ccc([N+](=O)[O-])cc2[nH]c1=O (stereo not given) next.
> 100 µM

And NC1=C(O)/C(=N/NS(=O)(=O)c2ccccc2)C(c2ccc3c(c2)OCO3)O1 (stereo not given) ?
> 100 µM

Next entry: `COc1ccc2c(c1)C(=O)/C(=C/c1ccc(O)cc1)O2`
> 66.9 µM

Now try `COc1cc(-c2n/c(=C\c3c(O)[nH]c4ccccc34)cc3c2=Nc2ccccc2-3)ccc1F` .
> 100 µM

Same read-out for `COc1cc(/C=C2\C[C@H]3[C@@H]4CC=C5C[C@@H](O)CC[C@]5(C)[C@H]4CC[C@]3(C)[C@H]2O)ccc1OCCN1CCCCC1` ?
1.75 µM

Again, but for `O=C1/C(=C/c2ccc(Cl)cc2)N=C(c2ccccc2)N1c1cc(C(F)(F)F)ccc1Cl`
48.8 µM

// repeat for COc1ccc(CC2Cc3ccccc3CC(=O)N2)cc1OC (stereo not given) and report
> 100 µM

// data source = PubChem BioAssay (NCI)
